What Km was measured for each of the following?
Test system: PleoLip241
Construct: signal peptide removed, codon-optimised synthetic gene behind alpha-factor signal, secreted from Pichia pastoris BG-10, purified by CM Sepharose; catalytic Ser273, Asp403, His520, pentapeptide GQSAG
assaySummary: spectrophotometric p-nitrophenol release, […] nm; non-linear regression
Assay type: biochemical, Pleurotus ostreatus
runParameters: pH 8; substrate 0.001-1 mM
Only the number, expressed in µM, is required.

response.value for CCCCCCCCCCCCCC(=O)Oc1ccc([N+](=O)[O-])cc1 [pNP-C14, p-nitrophenyl myristate] (field: Km) = 85

response.value for CCCCCCCCCCCC(=O)Oc1ccc([N+](=O)[O-])cc1 [pNP-C12, p-nitrophenyl dodecanoate] (field: Km) = 150

response.value for CCCCCCCCCCCCCCCC(=O)Oc1ccc([N+](=O)[O-])cc1 [pNP-C16, p-nitrophenyl palmitate] (field: Km) = 350

response.value for CCCCCCCCCC(=O)Oc1ccc([N+](=O)[O-])cc1 [pNP-C10, p-nitrophenyl decanoate] (field: Km) = 30

Values compiled from paper PMC5612753.
